- Tested on: SF-268 CNS
- Test method notes: NCI-60 one-dose screen, 48 h (100 = growth as untreated, 0 = no growth, -100 = all killed)
- Test parameters: 10 µM unless noted
This is part of a sample that, as a whole, favours compounds with a hit. Of some 83,000 tested, about 20% had one in any assay.
Returns: string. Value is 1 if measured growth is below 20%, and 0 if it is greater than or equal to it.

> print(dat)
                                  structure  cat
1  CC[C@H](C)[C@H](NC(=O)CN(C)C)C(=O)N(C)[C@H](C[C@@H](OC(C)=O)c1nc(C(=O)NC23CC(C(=O)OC)(C2)C3)cs1)C(C)C    0
2  COC(=O)[C@@H](C)C[C@H](Cc1ccccc1)NC(=O)c1cccc([C@@H](C[C@H](C(C)C)N(C)C(=O)[C@@H](NC(=O)[C@H]2CCCCN2C)C2CC2)OC(C)=O)n1    1
3   Cc1cc(Br)c([N+](=O)[O-])cc1[N+](=O)[O-]    0
4                     c1ccc2c(c1)sc1ccccc12    0
5                           N#Cc1ccc(Cl)cc1    0

###

- System: OVCAR-3 ovarian
- Test method notes: NCI-60 one-dose screen, 48 h
- Test parameters: 10 µM unless noted
About 83,000 compounds went through this panel and 20% of them were active in at least one assay; those are over-represented in the sample as a whole. The source made the active and inactive calls. How the source made its calls: active means growth percent below 10; inactive means the rest.
Outcomes: active, inactive

Compound	Cat
O=c1[nH]c(=O)[nH]c(=O)[nH]1	inactive
O=C1NC(=O)C(=C/C=C/c2ccccc2)C(=O)N1	inactive
N#Cc1ccc(Cl)cc1	inactive
C=CC[PH+](c1ccccc1)c1ccccc1.C=CC[PH+](c1ccccc1)c1ccccc1.[Pt+2].[S-]c1ncccn1.[S-]c1ncccn1	active
CC[C@H](C)[C@H](NC(=O)c1ncccn1)C(=O)N(C)[C@H](C[C@@H](OC(C)=O)c1nc(C(=O)N[C@@H](Cc2ccccc2)C[C@H](C)C(=O)OC)cs1)C(C)C	active
C[C@]12CC[C@H]3[C@@H](CC=C4c5nc(N)sc5CC[C@@]43C)[C@@H]1CC[C@@H]2O	inactive
Nc1ccc2c(c1)Cc1cc(N)ccc1-2	inactive
CCOC(=O)c1ccccc1C(=O)OCC	inactive
COc1ccc(O)c2c(=O)c3c(OC)cc4c(c3oc12)[C@@H]1C=CO[C@@H]1O4	inactive
ClCc1ccc(Cl)c(Cl)c1	inactive
C=CC[PH+](c1ccccc1)c1ccccc1.C=CC[PH+](c1ccccc1)c1ccccc1.[Pt+2].[S-]c1nc2ccccc2[nH]1.[S-]c1nc2ccccc2[nH]1	active
O=C(O)C(F)F	inactive
O=Cc1cn(Cc2ccccc2)c2ccccc12	inactive
COc1cc2c(cc1OC)-c1c3c(cc4c1[C@@H](C2)N(C)CC4)OCO3	inactive
C[C@]12CCc3nc(-c4ccc(O)c(O)c4)sc3C1=CC[C@@H]1[C@@H]2CC[C@]2(C)C(=O)CC[C@@H]12	inactive
CCCC[C@H]1C(=O)O[C@H](C)[C@H](NC(=O)c2cccc(NC=O)c2O)C(=O)O[C@@H](C)[C@@H]1OC(=O)CC(C)C	inactive
C[C@]12CC[C@H]3[C@@H](C[C@@H]4SC(Nc5cccc(F)c5)=N[C@@]45CC(=O)CC[C@]35C)[C@@H]1CCC2=O	active
O=[N+]([O-])c1c(Cl)cc(Cl)c([N+](=O)[O-])c1Cl	inactive
CNC(=O)Oc1ccc(Cl)cc1SSc1cc(Cl)ccc1OC(=O)NC	inactive
C[C@]12CCC3[C@@H](C[C@@H]4SC(Nc5ccccc5)=N[C@@]45CC(=O)CC[C@]35C)[C@@H]1CCC2=O (stereo partly drawn)	active
Cc1ccc(C(=O)O[C@H](C(=O)O)[C@H](OC(=O)c2ccc(C)cc2)C(=O)O)cc1	inactive
Cc1cc2c(cc1-c1ccnc(/C=C/C(=O)O)c1)C(C)(C)CCC2(C)C	inactive
Cn1cc(-c2csc(-c3cn(CCCCN4CCOCC4)c4ccc(F)cc34)n2)c2cccnc21	inactive
CC[C@H](C)[C@H](NC(=O)C12CC(NC)(C1)C2)C(=O)N(C)[C@H](C[C@@H](OC(C)=O)c1nc(C(=O)N[C@@H](Cc2ccccc2)C[C@H](C)C(=O)OC)cs1)C(C)C	active
C[C@]12CC[C@H](O)C[C@@H]1CC[C@@H]1[C@@H]2CC[C@]2(C)OC(=O)CC[C@@H]12	inactive
C#Cc1cccc(Nc2nc(Cl)nc3cc(NC(=O)CF)ccc23)c1	inactive
O=C1CN2CCC1CC2	inactive
CNC(=O)O/N=C(\SC)C(=O)N(C)C	inactive
N#CC(C#N)=Cc1cccc(F)c1	inactive
CC[C@H](C)[C@H](NC(=O)[C@H]1CCCCN1C)C(=O)N(C)[C@H](C[C@@H](OC(C)=O)c1cccc(C(=O)N[C@@H](Cc2ccccc2)C[C@H](C)C(=O)OC)n1)C(C)C	active
N#CC(NC(=O)CCl)=C(Cl)Cl	active
CC/C(Cc1ccccc1)=C(\c1ccc(OCCN2CCCC2)cc1)c1ccc(OC(=O)NCc2ccccc2)cc1	inactive
CCCCn1c(=O)c(C(=O)NCc2ccccc2Cl)c(O)c2ccccc21	inactive
Cc1cc(N(CCCl)CCCl)ccc1C=Nc1ccc(-c2csc(-c3ccccc3)n2)cc1	inactive
COc1cc(C2C3=C(CCCC3=O)N(CCO)c3cc4c(cc32)CCC4)cc(OC)c1OC (stereo not drawn)	inactive
Cc1cc[c-]cc1.Fc1c[c-]c(-c2ccccn2)c(F)c1.N#CCC[PH+](CCC#N)c1ccccc1.[Pt+2]	inactive
CSc1cc(/C=C(\C)[C@@H]2C[C@@H]3O[C@]3(C)CCC[C@H](C)[C@H](O)[C@@H](C)C(=O)C(C)(C)[C@@H](O)CC(=O)O2)n(CCNC(=O)OC(C)(C)C)n1	inactive
Nc1ccc(S(=O)(=O)F)cc1	inactive

###

Collected growth values appear next to each entry.
- System: OVCAR-5 ovarian
- Test method notes: NCI-60 one-dose screen, 48 h (100 = growth as untreated, 0 = no growth, -100 = all killed)
- Test parameters: 10 µM unless noted
The panel holds about 83,000 compounds, 20% with a hit somewhere; the sample as a whole holds those more often.

Compound	growth / %
CC[C@@H](C)C(=O)O[C@H]1[C@H](O)[C@H]2[C@@H](CN3C[C@@H](C)CC[C@H]3[C@@]2(C)O)[C@@H]2C[C@]34O[C@]5(O)[C@@H](OC(=O)[C@@](C)(O)CC)CC[C@@]3(C)[C@@H]5[C@@H](OC(C)=O)[C@@H](OC(C)=O)[C@H]4[C@@]21O	103
CC1=CC(=O)CCC12CCOC2=O (centres undefined)	96.7
CCOC(=O)C1C(C=C(C)C)C1(C)C (centres undefined)	80.5
Cc1c(C)c(N)c(C)c(C)c1N	85.1

###

- Test system: HOP-62 NSCLC
- Test method notes: NCI-60 one-dose screen, 48 h
- Test parameters: 10 µM unless noted
The panel holds about 83,000 compounds, 20% with a hit somewhere; the sample as a whole holds those more often. Activity calls are given as the source filed them. How the source made its calls: active means growth percent below 10; inactive means the rest.
Outcomes: active, inactive

> print(dat)
                                   structure       cat
 1  S=P(SP(=S)(c1ccccc1)c1ccccc1)(c1ccccc1)c1ccccc1  inactive
 2  COc1ccc(N(CC(=O)NCCC[Te]c2ccccc2)C(=O)c2ccccc2)cc1  inactive
 3  C[C@]12CC[C@H]3[C@@H](C[C@@H]4SC(Nc5ccccc5)=N[C@@]45C/C(=N/O)CC[C@]35C)[C@@H]1CCC2=O  inactive
 4  C[C@]12CC[C@H]3[C@@H](CC=C4c5nc(-c6ccc(Br)cc6)sc5CC[C@@]43C)[C@@H]1CC[C@@H]2O  inactive
 5                            COc1ccc(N)cc1N  inactive
 6      CC1=C([Te]c2ccccc2)C(=O)c2ccccc2C1=O    active
 7                           N#Cc1ccc(Cl)cc1  inactive
 8          O=CC1(c2ccccc2)CCN(Cc2ccccc2)CC1  inactive
 9  CCCC[C@H]1C(=O)O[C@H](C)[C@H](NC(=O)c2cccc(NC=O)c2O)C(=O)O[C@@H](C)[C@@H]1OC(=O)CC(C)C  inactive
10                  Oc1cc(N2CC2)c(O)cc1N1CC1    active

###

Collected growth values appear next to each entry.
- Tested on: HOP-92 NSCLC
- Test method notes: NCI-60 one-dose screen, 48 h (100 = growth as untreated, 0 = no growth, -100 = all killed)
- Test parameters: 10 µM unless noted
This is part of a sample that, as a whole, favours compounds with a hit. Of some 83,000 tested, about 20% had one in any assay.
Quantity measured: growth (%)

> print(dat)
                                   molecule  quantity.measured  measurement.unit  readout.number
1  C[C@@H]1C/C=C\C(=O)O[C@H](/C=C/C#C/C=C/C(C)(C)[C@@H](O)c2cccc(O)c2Br)[C@@H](C)/C=C/[C@H](C)C[C@H](OC(N)=O)C1             growth                 %            9.34
2  CC[C@H](C)[C@H](NC(=O)[C@H]1CCCCN1C)C(=O)N(C)[C@H](C[C@@H](OC(C)=O)c1nc(C(=O)N[C@@H](Cc2ccccc2)C[C@H](C)C(=O)O)cs1)C(C)C             growth                 %            14.8
3                     Nc1ccc(S(=O)(=O)F)cc1             growth                 %             110
4  CCCC(C)SP(=S)(SC(C)CCC)SC(C)CCC (centres undefined)             growth                 %            94.7
